- ASSAY SUMMARY: Growth inhibition of CHL cells after 72 hrs by CellTiter-Glo assay
- Assay type: cell-based, Cricetulus griseus
- ASSAY CONTEXT: chinese hamster
ENDPOINT: GI50 at 72 h

- C=CC(=O)Nc1cc(Nc2nccc(-c3cn(C)c4ccccc34)n2)c(OC)cc1N(C)CCN(C)C [OSIMERTINIB]: 2900 nM

====

- ASSAY SUMMARY: Growth inhibition of mouse BAF3 cells after 72 hrs by CellTiter-Glo assay
- Type: cell-based
This listing pairs compounds with measured GI50 at 72 h.
ENDPOINT: GI50 at 72 h (µM)

- CCOc1cc2ncc(C#N)c(Nc3ccc(OCc4ccccn4)c(Cl)c3)c2cc1NC(=O)/C=C/CN(C)C: 1.9
- C=CC(=O)Nc1cccc(Oc2nc(Nc3ccc(N4CCN(C)CC4)cc3OC)ncc2Cl)c1: 3.8
- C=CC(=O)Nc1cccc(Nc2nc(Nc3ccc(N4CCN(C(C)=O)CC4)cc3OC)ncc2C(F)(F)F)c1: 0.94
- C=CC(=O)N1CC[C@@H](n2nc(-c3ccc(Oc4ccccc4)cc3)c3c(N)ncnc32)C1: 4.1
- CN(C)C/C=C/C(=O)Nc1cc2c(Nc3ccc(F)c(Cl)c3)ncnc2cc1OC1CCOC1 (configuration not stated): 3

Source listed as ChEMBL document CHEMBL4049404.
